Data provenance is patent US8258175B2.

target: MDM2-p53 interaction (Homo sapiens, UniProt Q00987); construct: made in house; host or cells: in vitro translation (cell-free); experiment: ELISA assay of MDM2-p53 complex formation (MDM2 binding to immobilised IP3 p53-derived peptide); details: n=3 independent determinations; 5% DMSO; interpolated from three standard concentrations
Sequence (Q00987 whole entry): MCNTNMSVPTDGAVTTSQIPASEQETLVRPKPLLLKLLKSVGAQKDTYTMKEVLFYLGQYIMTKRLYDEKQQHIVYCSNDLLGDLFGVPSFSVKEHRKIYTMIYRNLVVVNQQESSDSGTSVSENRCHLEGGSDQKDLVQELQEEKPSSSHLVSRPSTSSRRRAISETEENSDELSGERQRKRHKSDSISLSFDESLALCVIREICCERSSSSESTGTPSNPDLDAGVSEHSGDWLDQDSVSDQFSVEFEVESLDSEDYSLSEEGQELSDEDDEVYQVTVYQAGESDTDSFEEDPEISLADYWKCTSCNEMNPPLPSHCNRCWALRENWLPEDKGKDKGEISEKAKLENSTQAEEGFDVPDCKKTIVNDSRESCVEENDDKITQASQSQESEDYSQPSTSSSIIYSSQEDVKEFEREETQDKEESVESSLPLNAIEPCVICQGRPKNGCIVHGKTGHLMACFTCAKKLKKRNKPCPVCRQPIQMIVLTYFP
pIC50: −log10 of the molar value.
recorded_endpoint: pIC50

molecule="C=CCOc1c(OC)cc(COC2(c3ccc(Cl)cc3)c3ccccc3C(=O)N2CCC)cc1OC (stereo not drawn) [NU8232]" observed_value=3.58
molecule="C=CCOc1ccc(COC2(c3ccc(Cl)cc3)c3ccccc3C(=O)N2CCC)cc1OC (stereo not drawn) [NU8242]" observed_value=3.57
molecule="CCCN1C(=O)c2ccccc2C1(OCc1cc(OC)c(O)c(OC)c1)c1ccc(OCOCC[Si](C)(C)C)cc1 (stereo not drawn) [NU8236]" observed_value=3.93

(I) CC(=O)NCCN1C(=O)c2ccccc2C1(OCc1ccc(C(C)(C)C)cc1)c1ccccc1 (stereo not drawn) [NU8213]
(II) O=C1c2ccccc2C(OCCCO)(c2ccccc2)N1Cc1ccccc1 (stereo not drawn) [NU8034]
(III) C=CCOc1cc(COC2(c3ccc(Cl)cc3)c3ccccc3C(=O)N2CCC)ccc1OC (stereo not drawn) [NU8241]
(IV) CCCN1C(=O)c2ccccc2C1(OCc1ccccc1)c1ccc(Cl)cc1 (stereo not drawn) [NU8237]
(V) O=C1c2ccccc2C(OC2CCC(O)C2)(c2ccc(Cl)cc2)N1CCc1ccccc1 (stereo not drawn) [NU8257]
Ranking field: pIC50; order: falling. Reply format: the labels, ordered as requested.
V, I, III, II, IV

* * *

target: MDM2-p53 interaction (Homo sapiens); construct: made in house; host or cells: in vitro translation (cell-free); assay: ELISA assay of MDM2-p53 complex formation (MDM2 binding to immobilised IP3 p53-derived peptide); settings: n=3 independent determinations; 5% DMSO; interpolated from three standard concentrations
pIC50: −log10 of the molar value.
recorded_endpoint: pIC50

Sample records with pIC50:
compound="C[Si](C)(C)CCOCOc1ccc(C2(O)c3ccccc3C(=O)N2Cc2ccccc2)cc1 (stereo not shown)" observed_value=3.44
compound="CCCN1C(=O)c2ccccc2C1(OCc1ccc(C(C)(C)C)cc1)c1ccc(Cl)cc1 (stereo not shown)" observed_value=3.73

(I) CCCN1C(=O)c2ccccc2C1(OCc1ccc(O)cc1)c1ccc(Cl)cc1 (stereo not shown)
(II) C=C(C)C(=O)OCCN1C(=O)c2ccccc2C1(NC(CO)C(O)c1ccccc1)c1ccccc1 (stereo not shown)
Hi there, can you help? I need to know whether I or II has lower measured pIC50. Refer to your chosen entry by its label in the reply.
II

* * *

biological target: MDM2-p53 interaction (Homo sapiens, UniProt Q00987); construct: made in house; host or cells: in vitro translation (cell-free); experiment: ELISA assay of MDM2-p53 complex formation (MDM2 binding to immobilised IP3 p53-derived peptide); details: nM
recorded_endpoint: IC50 (nM)
Numbers only here, please. The scale is nM.

GET /values?readout=IC50&item= O=C1c2ccccc2C(OC2CCC(O)C2)(c2ccc(Cl)cc2)N1Cc1ccc([N+](=O)[O-])cc1 (stereo not shown) [NU8261]
700

* * *

molecular target: MDM2-p53 interaction (Homo sapiens); construct: made in house; host or cells: in vitro translation (cell-free); assay: ELISA assay of MDM2-p53 complex formation (MDM2 binding to immobilised IP3 p53-derived peptide); settings: n=3 independent determinations; 5% DMSO; interpolated from three standard concentrations
recorded_endpoint: IC50 (µM)

molecule="CCCN1C(=O)c2ccccc2C1(OCCc1ccccn1)c1ccc(OCOCC[Si](C)(C)C)cc1 (centres unmarked) [NU8235]" recorded_endpoint=IC50 observed_value=312

(A) CCOc1ccc(C2(NC(=O)c3ccccc3)c3ccccc3C(=O)N2CC2CCCCC2)cc1 (centres unmarked) [NU8201]
(B) COc1cc(COC2(c3ccccc3)c3ccccc3C(=O)N2Cc2ccccc2)cc(OC)c1O (centres unmarked) [NU8205]
// compare: A vs B , metric IC50, want the smaller The response must carry the label of the picked entry.
B
(B: 17.9 µM, A: 209 µM)
